measurement_protocol: Half life in rat
Type: ADME, organism-based
study_conditions: in vivo
quantity: half-life (h)
All answers are understood in h, so give the number only.

Query: half-life; subject: COC(=O)N(NC(=O)c1c(OC)c(-c2ccccc2)nc2ccccc12)c1ccccc1
4.6

----------
target_of_assay: UniProt:P10635
Sequence (P10635 whole entry): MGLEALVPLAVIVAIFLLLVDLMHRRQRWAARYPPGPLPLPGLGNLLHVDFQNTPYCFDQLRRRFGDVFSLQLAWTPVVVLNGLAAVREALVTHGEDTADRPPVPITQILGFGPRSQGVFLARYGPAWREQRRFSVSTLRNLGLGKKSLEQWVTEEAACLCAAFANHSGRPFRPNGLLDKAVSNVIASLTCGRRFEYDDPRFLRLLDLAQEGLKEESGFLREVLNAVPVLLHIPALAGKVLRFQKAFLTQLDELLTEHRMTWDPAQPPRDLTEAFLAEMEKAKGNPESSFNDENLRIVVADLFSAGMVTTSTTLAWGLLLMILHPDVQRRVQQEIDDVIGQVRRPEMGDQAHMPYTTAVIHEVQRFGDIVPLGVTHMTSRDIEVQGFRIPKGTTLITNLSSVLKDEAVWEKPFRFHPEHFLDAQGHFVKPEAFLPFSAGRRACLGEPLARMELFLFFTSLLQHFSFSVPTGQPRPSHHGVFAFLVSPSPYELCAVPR
pIC50: −log10 of the molar value.
quantity: pIC50

Param item = COC(=O)N(NC(=O)c1c(OC)c(-c2ccccc2)nc2ccccc12)c1ccccc1 ; retrieve measured pIC50.
< 4.52

----------
measurement_protocol: Oral bioavailability in dog
Format: ADME, organism-based, Canis lupus familiaris
study_conditions: in vivo
quantity: bioavailability (%)
Please give a number only; it is taken to be in %.

Item under review: COC(=O)N(NC(=O)c1c(OC)c(-c2ccccc2)nc2ccccc12)c1ccccc1 . Reported bioavailability?
36

Source listed as ChEMBL document CHEMBL1139722.
